Assay: soluble on expression in E. coli; label from the status in PepcDB or PDB records
Assay Readout: soluble on expression in E. coli

NYNHPFTQLGNQVFPTTPIVSGVRGRVVEVPVQANQPLKTGDILFKIDPVPFEAEVARLEAKVKEASQGALGLESDLREAEAAVLKAQADRDKAQREFSRYQRGFDRGAFTEQDLDTRRQAYKAAEAMLDVAILQQEQAQIALDSEIGGENTQVAQLLAELRKAEFNLEQTIVRAPTDGYVTQLALR soluble
MTYVFGPVSSKRLGQSLGVDLLPSKSCTWNCIYCQLGRTTAFVTERREFFPKEEILSEILETVASGKPIDWITFVGSGETTLYKGLDWLIAEVKKISKIPVAVITNGSLLSDPEVRRELLEADAVLPSLNAGSPELFERIDRPAPGFTFEKHVEGLRLFRQEYRGKLWVEVMLIRGVNDSEEALKEMAAVLAEIRPDMIHLVMPTRPAPESFVGIPDEELIQRAVFVLSSSAPVLHPAKGEMNLGSVGNLLDTVAGIASRHPVQERELEAALGKLFDGDAAKIRETMGELLASGRFEKVRQGSELYWIVKSA not soluble
MSGVLNTVDQRTNLVGENRLELLLFTLNSRQLFAINVFKVKEVIKLPPLTKLPGSHYNIRGVASLRGEAVPVIDLRCSIGFPPLRGEAEEENLIVTEYNRSVQGFLVGPVRNIINTAWTEIQPPPSTSGRSNYLTAITQVKDGDTSQIVEIIDVEKVLAEIVHYDVTISEDILDHDLSQSMVGRN not soluble
MGSDKIHHHHHHMEVTRTDKAVTLRWENEEVSEGTLVFVSSSPSLEANSEPVFKVSNAAKHYTFETKDIPVYFFLQAPNGDKRVVSERILPLESVFNFRDMGGYKTKHGHHVKWGKLYRSSNLVNINQADAALLQKLHIKWICDLRSSSEVQAQPTPEIQGVLNKHIPIGTAKNEKTTLPVSNDKAIYEPLMGESYRVFVQSVDGFKEIFSEILTDAKAGLPFVFHCTAGKDRTGVLAALLLTLLDVPEKTIFDDYAITNRYQDNILQEMGGIVSLFSNGNEKIDLEAFRPMAEARPEYLKIAFDEMKKQFGSVDGYLEKGIGITAEEKAIIQQQLLE not soluble
MSGINARPTNSIFSNLCQIFSSLQGCLKTQTPFSDGLFSLKSPYRSIRKHRRIIMEVTISAIINGEFADQYGKRGSQFNENGMLI not soluble
MESRKLISATDIQYSGSLLNSLNEQRGHGLFCDVTVIVEDRKFRAHKNILSASSTYFHQLFSVAGQVVELSFIRAEIFAEILNYIYSSKIVRVRSDLLDELIKSGQLLGVKFIAAL soluble

`MGHHHHHHSHMQQAPVVLSTLDKLLNWGRSNSLWPLTYGLACCAIEMMATGGSRFDFDRFGTIFRASPRQSDVMIIAGTLTKKHAEFMRRLYDQMPEPKWVISMGSCANTGGMFNTYATVQGADRVVPVDIYLPGCAPRPETLQYALMVLQDKIRRSKAIKQDAPKRLV` yielded soluble on expression in E. coli of not soluble

`MAIPKLQAYALPESHDIPQNKVDWAFEPQRAALLIHDMQDYFVSFWGENCPMMEQVIANIAALRDYCKQHNIPVYYTAQPKEQSDEDRALLNDMWGPGLTRSPEQQKVVDRLTPDADDTVLVKWRYSAFHRSPLEQMLKESGRNQLIITGVYAHIGCMTTATDAFMRDIKPFMVADALADFSRDEHLMSLKYVAGRSGRVVMTEELLPAPIPASKAALREVILPLLDESDEPFDDDNLIDYGLDSVRMMALAARWRKVHGDIDFVMLAKNPTIDAWWKLLSREVK` yielded soluble on expression in E. coli of not soluble

`MENQDYTVRLTVQASPQEVFKQINRVTAWWTKNLQGDSEKLNDVFTVNFPGMHVSTQKLIECIPDKKVTWMVTDSHLTFIQRKTEWTDTTIQFDISRNVKHTEVLFTHKGLNPAIECYGDCAKGWDYFIKGSLFKLLTEGTGTPELEHHHHHH` yielded soluble on expression in E. coli of soluble

Reference source: the DeepSol protein solubility set
